Biological target: T1, Human Tau 2N4R, wild type, recombinant full length (human, UniProt P10636 2-758)
T1 construct: Full length 2N4R isoform; monomer in SPR and ELISA; heparin-induced aggregates or seeds in the functional assays; also called Tau441; Tau-441
T1 sequence (P10636 other isoform, or with tags, fused parts or gaps limits assumed): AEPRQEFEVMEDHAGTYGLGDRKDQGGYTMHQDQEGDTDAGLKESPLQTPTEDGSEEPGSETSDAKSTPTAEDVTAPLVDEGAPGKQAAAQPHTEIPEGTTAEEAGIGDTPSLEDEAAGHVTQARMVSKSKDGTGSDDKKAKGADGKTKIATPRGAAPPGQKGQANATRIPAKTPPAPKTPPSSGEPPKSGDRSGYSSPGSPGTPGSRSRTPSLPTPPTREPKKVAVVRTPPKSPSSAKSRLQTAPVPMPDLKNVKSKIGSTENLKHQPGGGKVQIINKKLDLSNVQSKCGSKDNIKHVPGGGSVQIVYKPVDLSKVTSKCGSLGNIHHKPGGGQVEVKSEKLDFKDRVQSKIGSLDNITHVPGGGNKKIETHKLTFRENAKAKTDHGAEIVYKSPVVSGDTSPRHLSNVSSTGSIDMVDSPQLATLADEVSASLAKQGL
Test: SPR BIAcore, mAb captured by anti-human IgG, Tau flowed, 1:1 Langmuir
OBSERVABLE: koff (s⁻¹)
Record the value in s⁻¹, omitting the unit from your answer.

Observe how each entry below is paired with its result.
7G6-HCzu9-LCzu6 (antibody, human IgG1, kappa, V domains shown, humanized, human IgG1 kappa) VH: QVQLVQSGAEVKKPGASVKVSCKASGYTFTTYWITWVRQAPGQGLEWMGDIYPGSSICNYAQKFQGRVTMTVDTSTSTVYMELSSLRSEDTAVYYCAREDGYDAWFAYWGQGTLVTVSS VL: DVVMTQSPLSLPVTLGQPASISCRSSQSILHSNGNTYLEWYQQRPGQSPRLLISKVSNRFSGVPDRFSGSGSGTDFTLKISRVEAEDVGVYYCFQGSHVPFTFGQGTKLEIKR    0.000193
7G6-HCzu6-LCzu6 (antibody, human IgG1, kappa, V domains shown, humanized, human IgG1 kappa) VH: QVQLVQSGAEVKKPGASVKVSCKASGYTFTTYWITWVRQAPGQGLEWMGDIYPGSSISNYNEKFKSRVTMTVDTSTSTVYMELSSLRSEDTAVYYCAREDGYDAWFAYWGQGTLVTVSS VL: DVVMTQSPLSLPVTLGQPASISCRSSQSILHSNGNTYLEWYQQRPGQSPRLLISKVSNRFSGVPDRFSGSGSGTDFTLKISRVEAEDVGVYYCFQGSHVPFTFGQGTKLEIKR    0.000213
7G6-HCzu3-LCzu6 (antibody, human IgG1, kappa, V domains shown, humanized, human IgG1 kappa) VH: QVQLVQSGAEVKKPGASVKVSCKASGYTFTTYWITWVRQAPGQGLEWMGDIYPGSSICNYNEKFKSRVTMTVDTSTSTAYMELSSLRSEDTAVYYCAREDGYDAWFAYWGQGTLVTVSS VL: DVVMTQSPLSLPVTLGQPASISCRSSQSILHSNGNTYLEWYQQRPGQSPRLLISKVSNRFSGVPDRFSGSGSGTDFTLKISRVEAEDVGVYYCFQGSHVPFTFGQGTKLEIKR    0.000227
7G6-HCzu7-LCzu6 (antibody, human IgG1, kappa, V domains shown, humanized, human IgG1 kappa) VH: QVQLVQSGAEVKKPGASVKVSCKASGYTFTTYWITWVRQAPGQGLEWMGDIYPGSSISNYAQKFQGRVTMTVDTSTSTVYMELSSLRSEDTAVYYCAREDGYDAWFAYWGQGTLVTVSS VL: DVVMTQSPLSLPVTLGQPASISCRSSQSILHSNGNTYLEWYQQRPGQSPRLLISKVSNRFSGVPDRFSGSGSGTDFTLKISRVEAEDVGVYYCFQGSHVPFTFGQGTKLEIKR    0.000226
7G6-HCzu8-LCzu6 (antibody, human IgG1, kappa, V domains shown, N-terminal pyroglutamic acid, humanized, human IgG1 kappa; also called 7G6-HCzu8-LCzu6-HEK; ATCC PTA-124523) VH: QVQLVQSGAEVKKPGASVKVSCKASGYTFTTYWITWVRQAPGQGLEWMGDIYPGSSISNYAQKFQGRVTMTRDTSTSTVYMELSSLRSEDTAVYYCAREDGYDAWFAYWGQGTLVTVSS VL: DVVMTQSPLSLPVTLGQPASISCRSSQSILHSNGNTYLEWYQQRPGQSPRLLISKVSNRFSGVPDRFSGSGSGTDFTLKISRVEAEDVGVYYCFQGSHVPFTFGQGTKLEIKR    0.00021

# input binder: 7G6-HCzu10-LCzu6 (antibody, human IgG1, kappa, V domains shown, humanized, human IgG1 kappa) VH: QVQLVQSGAEVKKPGASVKVSCKASGYTFTTYWITWVRQAPGQGLEWMGDIYPGSSICNYAQKFQGRVTMTRDTSTSTVYMELSSLRSEDTAVYYCAREDGYDAWFAYWGQGTLVTVSS VL: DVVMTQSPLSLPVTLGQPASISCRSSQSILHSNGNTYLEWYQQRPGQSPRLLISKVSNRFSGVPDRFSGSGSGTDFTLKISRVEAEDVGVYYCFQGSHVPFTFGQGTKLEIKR ; wanted: its koff 0.000213

# input binder: 7G6-HCzu3-LCzu1 (antibody, human IgG1, kappa, V domains shown, humanized, human IgG1 kappa) VH: QVQLVQSGAEVKKPGASVKVSCKASGYTFTTYWITWVRQAPGQGLEWMGDIYPGSSICNYNEKFKSRVTMTVDTSTSTAYMELSSLRSEDTAVYYCAREDGYDAWFAYWGQGTLVTVSS VL: DVVMTQSPLSLPVTLGQPASISCRSSQSILHSNGNTYLEWFQQRPGQSPRRLIYKVSNRFSGVPDRFSGSGSGTDFTLKISRVEAEDVGVYYCFQGSHVPFTFGQGTKLEIKR ; wanted: its koff 0.000856

# input binder: 7G6-HCzu5-LCzu10 (antibody, human IgG1, kappa, V domains shown, humanized, human IgG1 kappa) VH: QVQLVQSGAEVKKPGASVKVSCKASGYTFTTYWITWVRQAPGQGLEWMGDIYPGSSISNYNEKFKSRVTMTVDTSTSTAYMELSSLRSEDTAVYYCAREDGYDAWFAYWGQGTLVTVSS VL: DVVMTQSPLSLPVTLGQPASISCRSSQSIVHSNGNTYLEWFQQRPGQSPRRLIYKVSNRFSGVPDRFSGSGSGTDFTLKISRVEAEDVGVYYCFQGSHVPFTFGQGTKLEIKR ; wanted: its koff 0.00053

# input binder: 7G6-HCzu5-LCzu7 (antibody, human IgG1, kappa, V domains shown, humanized, human IgG1 kappa) VH: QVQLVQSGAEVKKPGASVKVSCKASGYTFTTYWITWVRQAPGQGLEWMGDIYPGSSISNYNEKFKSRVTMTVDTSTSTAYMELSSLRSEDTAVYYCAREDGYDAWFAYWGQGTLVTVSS VL: DVVMTQSPLSLPVTLGQPASISCRSSQSILHSNGNTYLEWFQQRPGQSPRRLISKVSNRFSGVPDRFSGSGSGTDFTLKISRVEAEDVGVYYCFQGSHVPFTFGQGTKLEIKR ; wanted: its koff 0.000304

# input binder: 7G6-HCzu5-LCzu2 (antibody, human IgG1, kappa, V domains shown, humanized, human IgG1 kappa) VH: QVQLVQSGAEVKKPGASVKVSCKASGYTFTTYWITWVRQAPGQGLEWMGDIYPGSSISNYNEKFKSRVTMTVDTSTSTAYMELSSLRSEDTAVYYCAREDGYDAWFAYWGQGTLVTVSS VL: DVVMTQSPLSLPVTLGQPASISCRSSQSILHSNGNTYLEWYQQRPGQSPRLLICKVSNRFSGVPDRFSGSGSGTDFTLKISRVEAEDVGVYYCFQGSHVPFTFGQGTKLEIKR ; wanted: its koff 0.000237

Reference source for all entries: patent US20190112365A1
